- MEASUREMENT_DESCRIPTION: LTB4 receptor binding from radioligand binding assay using guinea pig spleen cell membrane
MEASURE: IC50

input: Can you look up the measured IC50 of CN(CCc1ccccc1)C(=O)Cn1c(C(=O)O)cc2cc(OCc3ccccc3)ccc21 for me?
output: 2.5 nM

input: Also CN(CCc1ccccc1)C(=O)Cn1cc(/C=C/C(=O)O)c2ccc(OCc3ccccc3)cc21 , if possible.
output: > 300 nM

Further cases:
input: Can you look up the measured IC50 of CN(CCc1ccccc1)C(=O)Cc1cc(C(=O)O)cc2cc(OCc3ccccc3)ccc12 for me?
output: 1.07 nM

input: Also CN(CCc1ccccc1)C(=O)Cn1cc(C(=O)O)c2cc(OCc3ccccc3)ccc21 , if possible.
output: 1.5 nM

input: Also CC/C(=C\c1cn(CC(=O)N(C)CCc2ccccc2)c2cccc(OCc3ccccc3)c12)C(=O)O , if possible.
output: 1.5 nM

* * *

- MEASUREMENT_DESCRIPTION: LTB4 receptor binding from radioligand binding assay using guinea pig spleen cell membrane
MEASURE: IC50
Units required after the number.

input: Can you look up the measured IC50 of CN(CCc1ccccc1)C(=O)Cc1cc(CCC(=O)O)cc2c(OCc3ccccc3)cccc12 for me?
output: 10 nM

input: Also CN(CCc1ccccc1)C(=O)Cn1cc(CC(=O)O)c2cc(OCc3ccccc3)ccc21 , if possible.
output: 30 nM

input: Also CN(CCc1ccccc1)C(=O)Cc1cc(C(=O)O)cc2c(Oc3ccccc3)cccc12 , if possible.
output: 1.5 nM

input: Also Cc1c(C(=O)O)c2cc(OCc3ccccc3)ccc2n1CC(=O)N(C)CCc1ccccc1 , if possible.
output: 5 nM

input: Also CN(CCc1ccccc1)C(=O)Cc1cc(CCCCC(=O)O)cc2c(OCc3ccccc3)cccc12 , if possible.
output: 2.8 nM

* * *

- SYSTEM_NAME: Leukotriene B4 receptor (Homo sapiens, UniProt Q9NPC1+Q15722)
- MEASUREMENT_DESCRIPTION: LTB4 receptor binding from radioligand binding assay using human intact neutrophils PMN
Simple rule here: IC50 less than 30 nM is met, otherwise not met.

Answered examples (8):
input: Input CN(CCc1ccccc1)C(=O)Cc1cc(/C=C/C(=O)O)cc2c(Oc3ccccc3)cccc12 ; condition: IC50 strictly below 30 nM. Does it hold?
output: met

input: Also CN(CCc1ccccc1)C(=O)Cn1cc(C(=O)O)c2cc(OCc3ccccc3)ccc21 , if possible.
output: met

input: Also CC/C(=C\c1cc(CC(=O)N(C)CCc2ccccc2)c2cccc(OCc3ccccc3)c2c1)C(=O)O , if possible.
output: not met

input: Also CN(CCc1ccccc1)C(=O)Cn1cc(/C=C/C=C/C(=O)O)c2cc(OCc3ccccc3)ccc21 , if possible.
output: met

input: Also CCCCCOc1cccc2c(CC(=O)N(C)CCc3ccccc3)cc(C(=O)O)cc12 , if possible.
output: met

input: Also CN(CCc1ccccc1)C(=O)Cc1cc(/C=C/C2N=NN=N2)cc2c(OCc3ccccc3)cccc12 , if possible.
output: met

input: Also CN(CCc1ccccc1)C(=O)Cc1cc(CCC(=O)O)cc2c(-c3ccccc3)cccc12 , if possible.
output: not met

input: Also CN(CCc1ccccc1)C(=O)Cc1cc(CCCCC(=O)O)cc2c(OCc3ccccc3)cccc12 , if possible.
output: not met

Further cases:
input: Input COc1cccc2c(CC(=O)N(C)CCc3ccccc3)cc(C(=O)O)cc12 ; condition: IC50 strictly below 30 nM. Does it hold?
output: not met

input: Also CN(CCc1ccccc1)C(=O)Cc1cc(/C=C/C(=O)O)cc2c(OCc3ccccc3)cccc12 , if possible.
output: met

input: Also CN(CCc1ccccc1)C(=O)Cc1cc(C(=O)O)cc2cc(OCc3ccccc3)ccc12 , if possible.
output: met

input: Also CN(CCc1ccccc1)C(=O)Cn1cc(/C=C/C=C/C(=O)O)c2c(OCc3ccccc3)cccc21 , if possible.
output: met

input: Also CN(CCc1ccccc1)C(=O)Cc1cc(C(=O)O)cc2c(-c3ccccc3)cccc12 , if possible.
output: met

input: Also CN(CCc1ccccc1)C(=O)Cn1cc(/C=C/C2N=NN=N2)c2cc(OCc3ccccc3)ccc21 , if possible.
output: met
